Reported Ratio of chromophore remaining relative to S340 values for the following molecules.
EXPERIMENT SUMMARY: Photostability: xenon arc weathering of chromophore solutions, LCMS analysis
Assay type: physicochemical
STUDY CONDITIONS: 10 wt %; interpolated to 0.5 MJ/m^2 of energy exposure at 340 nm
# respond with the number and nothing more

The following molecules have reported results that may help.
| MOLECULE | VALUE MEASURED |
| --- | --- |
| CCOC(=O)CCCOc1cc2oc(-c3ccc(C(C)(C)C)cc3)c(C3=C(c4cc(-c5cc6c(s5)C(C)(C)CCC6(C)C)sc4-c4cc5c(s4)C(C)(C)CCC5(C)C)C(F)(F)C(F)(F)C3(F)F)c2cc1OCCCC(=O)OCC [Chromophore S387] | 1.10 |
| COCCCOc1cc2oc(-c3ccc(C(C)(C)C)cc3)c(C3=C(c4cc(-c5cc(C(C)(C)C)cs5)sc4-c4cc(C(C)(C)C)cs4)C(F)(F)C(F)(F)C3(F)F)c2cc1OCCCOC | 1.08 |
| CC(=O)Oc1cc2oc(-c3ccc(C(C)(C)C)cc3)c(C3=C(c4cc(-c5ccc(C(C)(C)C)s5)sc4-c4ccc(C(C)(C)C)s4)C(F)(F)C(F)(F)C3(F)F)c2cc1OC(C)=O [Chromophore S367] | 0.45 |
| CC(C)(C)c1ccc(-c2oc3cc(OCCN4CCOC4=O)c(OCCN4CCOC4=O)cc3c2C2=C(c3cc(-c4cc5c(s4)C(C)(C)CCC5(C)C)sc3-c3cc4c(s3)C(C)(C)CCC4(C)C)C(F)(F)C(F)(F)C2(F)F)cc1 [Chromophore S390] | 1.08 |

Exercise: Look at this molecule and give its reported Ratio of chromophore remaining relative to S340. CCOC(=O)CCCOc1cc2oc(-c3ccc(C(C)(C)C)cc3)c(C3=C(c4cc(-c5cc(C(C)(C)C)cs5)sc4-c4cc(C(C)(C)C)cs4)C(F)(F)C(F)(F)C3(F)F)c2cc1OCCCC(=O)OCC [Chromophore S386]
Key: 1.08

----------
Reported Minus-2HF (%) values for the following molecules.
EXPERIMENT SUMMARY: Photostability: xenon arc weathering of chromophore solutions, LCMS analysis
Assay type: physicochemical
STUDY CONDITIONS: 3 wt % in Rhodiasolv IRIS; xenon arc, 82° C. bp; linearly interpolated to 0.5 MJ/m2 @ 340 nm
Entry rule: numbers only, all in %.

| MOL | UNIT DESCRIPTOR | VALUE MEASURED |
| --- | --- | --- |
| CC(=O)Oc1cc2oc(-c3ccc(C(C)(C)C)cc3)c(C3=C(c4cc(-c5cc(C(C)(C)C)cs5)sc4-c4cc(C(C)(C)C)cs4)C(F)(F)C(F)(F)C3(F)F)c2cc1OC(C)=O | % | 0.0 |
| CC(C)(C)c1ccc(-c2oc3ccccc3c2C2=C(c3cc(-c4ccc(C(C)(C)C)s4)sc3-c3ccc(C(C)(C)C)s3)C(F)(F)C(F)(F)C2(F)F)cc1 | % | 3.1 |

Attention now turns to another entry.
Exercise: Look at this molecule and give its reported Minus-2HF (%). `COc1ccc2oc(-c3ccc(C(C)(C)C)cc3)c(C3=C(c4cc(-c5ccc(C(C)(C)C)s5)sc4-c4ccc(C(C)(C)C)s4)C(F)(F)C(F)(F)C3(F)F)c2c1`
Key: 8.0
